TARGET OF ASSAY: HLA-B*51:01
EXPERIMENT NOTES: IEDB peptide-MHC binding, purified MHC/competitive/fluorescence; bounds were set here for any values at or beyond the usual limits of such assays
STUDY CONDITIONS: source organism: Mus musculus
QUANTITY NAME: IC50 (µM)
Just the number in µM, nothing appended.

IN: Reported IC50 for VALFSSCPV : what is it?
OUT: 1.85

====

TARGET OF ASSAY: HLA-B*44:03
EXPERIMENT NOTES: IEDB peptide-MHC binding, purified MHC/competitive/radioactivity; filed as Kd, often an IC50 or EC50 that approximates it; bounds were set here for any values at or beyond the usual limits of such assays
STUDY CONDITIONS: source organism: SARS coronavirus Tor2
Checkbox rule: Kd lower than 50 nM = TRUE; Kd not lower than 50 nM = FALSE.

Consider the worked cases shown below.
SEVGICLST :: TRUE
SFYYIWKSYV :: FALSE
REFVFKNKDG :: FALSE
FEEAALCTFL :: TRUE
SETLLPLTQY :: TRUE

IN: Decide: Kd of SEAFEYYHTL strictly below 50 nM?
OUT: TRUE

IN: Try this sequence next: QEYADVFHLY
OUT: TRUE
